# ASSAY_SYSTEM: CDK6/D3 (Homo sapiens, UniProt Q00534)
# Sequence (Q00534 whole entry): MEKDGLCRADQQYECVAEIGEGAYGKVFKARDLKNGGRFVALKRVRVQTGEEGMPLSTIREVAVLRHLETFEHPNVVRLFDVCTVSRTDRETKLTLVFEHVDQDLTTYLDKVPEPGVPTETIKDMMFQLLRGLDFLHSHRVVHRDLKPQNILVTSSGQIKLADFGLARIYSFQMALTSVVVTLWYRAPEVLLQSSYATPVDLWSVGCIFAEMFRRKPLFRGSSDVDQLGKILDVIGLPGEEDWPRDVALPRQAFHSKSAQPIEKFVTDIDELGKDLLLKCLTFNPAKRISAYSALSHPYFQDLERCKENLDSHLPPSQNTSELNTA
# Sequence (P30281 whole entry partner): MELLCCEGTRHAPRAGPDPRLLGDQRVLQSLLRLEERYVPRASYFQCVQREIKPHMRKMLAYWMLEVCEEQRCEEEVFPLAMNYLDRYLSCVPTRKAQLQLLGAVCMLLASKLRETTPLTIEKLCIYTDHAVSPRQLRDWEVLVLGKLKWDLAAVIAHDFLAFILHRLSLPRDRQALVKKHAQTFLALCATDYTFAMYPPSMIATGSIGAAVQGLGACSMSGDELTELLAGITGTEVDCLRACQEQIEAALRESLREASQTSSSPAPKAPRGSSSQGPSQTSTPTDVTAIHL
# EXPERIMENTAL_DETAILS: ADP Glo Kinase assay CDK6/D3
# Assay type: biochemical
# CONDITION_LABEL: CDK6D3; compound at 10 μM; read-out: residual activity (%) at 10 μM CDK6D3
Checkbox rule: remaining activity at 10 µM lower than 50% = 1; remaining activity at 10 µM not lower than 50% = 0.

Here's what some known entries look like.
COMPOUND: Cc1ccc2ncc(-c3nc(N[C@H]4CC[C@H](N)CC4)ncc3F)n2c1
ANSWER_LABEL: 1
--
COMPOUND: Cc1cnc(N[C@H]2CC[C@H](N)CC2)nc1-c1cnc2ccc(-c3cncnc3)cn12
ANSWER_LABEL: 0
--
COMPOUND: Cc1cnc(N[C@H]2CC[C@H](N)CC2)nc1-c1cnc2ccc(Nc3cccnn3)cn12
ANSWER_LABEL: 0

Q) Confirm or reject: remaining activity at 10 µM of N[C@H]1CC[C@H](Nc2ncc(Cl)c(-c3cnc4ccc(C(F)(F)F)cn34)n2)CC1 lies strictly below 50%
A) 0

Q) Here's an entry: Cc1cnc(N[C@H]2CC[C@H](N)CC2)nc1-c1cnc2ccc(Nc3cncc(C(F)(F)F)c3)cn12 . Is its remaining activity at 10 µM below 50%?
A) 1

Q) Strictly below 50%: is that where remaining activity at 10 µM of Cc1cnc(N[C@H]2CC[C@H](N)CC2)nc1-c1cnc2ccc(Nc3ccccc3)cn12 sits?
A) 1

###

# ASSAY_SYSTEM: T1, CDKs and other kinases (Homo sapiens, UniProt P06493)
# T1 construct: other: CDK1B; residual activity (%) at 10 μM CDK1B; compound at 10 μM
# T1 sequence (P06493 whole entry): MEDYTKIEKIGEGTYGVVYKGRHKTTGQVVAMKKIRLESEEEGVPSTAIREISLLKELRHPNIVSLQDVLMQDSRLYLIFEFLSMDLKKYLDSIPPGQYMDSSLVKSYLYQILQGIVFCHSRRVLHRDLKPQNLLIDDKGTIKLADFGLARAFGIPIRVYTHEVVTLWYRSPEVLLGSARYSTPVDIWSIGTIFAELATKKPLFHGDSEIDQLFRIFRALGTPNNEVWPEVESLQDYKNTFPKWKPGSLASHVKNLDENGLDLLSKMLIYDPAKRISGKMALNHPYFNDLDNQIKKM
# EXPERIMENTAL_DETAILS: Radiometric kinase assay (Eurofins Pharma Discovery or Reaction Biology Corporation Kinase Profiler)
# Format: biochemical
# CONDITION_LABEL: CDK1B; read-out: CDK inhibition, Ki (μM) CDK1B
# Experimental: Eurofins Pharma Discovery or Reaction Biology Corporation Kinase Profiler services were used to measure inhibition of CDKs and other kinases by radiometric assay. Inhibition of CDK4/D1, CDK6/D3 and CDK9/T1 were also determined in-house using ADP Glo Kinase assays (Promega Corporation, Madison, USA). […] Luminescence was measured using an EnVision Multilabel plate reader (PerkinElmer, Buckinghamshire, UK). […]
Ki strictly less than 1 µM = yes. Otherwise no.

A selection of reference data follows.
COMPOUND: Cc1cnc(N[C@H]2CC[C@H](O)CC2)nc1-c1cnc2ccc(Nc3cncnc3)cn12 [Compound 108]
ASSAY_SYSTEM: T1, CDKs and other kinases (Homo sapiens, UniProt P06493)
ANSWER_LABEL: yes
--
COMPOUND: Fc1cnc(N[C@H]2CC[C@H](N3CCC3)CC2)nc1-c1cnc2ccc(-c3ccccc3)cn12 [Compound 138]
ASSAY_SYSTEM: T1, CDKs and other kinases (Homo sapiens, UniProt P06493)
ANSWER_LABEL: yes
--
COMPOUND: Cc1cnc(N[C@H]2CC[C@H](N)CC2)nc1-c1cnc2ccc(N(C)c3cccnc3)cn12 [Compound 122]
ASSAY_SYSTEM: T1, CDKs and other kinases (Homo sapiens, UniProt P06493)
ANSWER_LABEL: no

Q) Decide: Ki of Fc1cnc(NC2CCN(CC3CC3)CC2)nc1-c1cnc2ccccn12 [Compound 22] strictly below 1 µM?
A) no

Q) Is Ki strictly under 1 µM for the entry Cc1cnc(N[C@H]2CC[C@H](N)CC2)nc1-c1cnc2ccccn12 [Compound 8] ?
A) no

Q) Field: below-cutoff. Rule: recorded Ki strictly less than 1 µM. Subject: Cc1cnc(N[C@H]2CC[C@H](N)CC2)nc1-c1cnc2ccc(-c3cncnc3)cn12 [Compound 39]
A) no

Q) Input Cc1cnc(N[C@H]2CC[C@H](N)CC2)nc1-c1cnc2ccc(-c3cccnc3)cn12 [Compound 29] ; condition: Ki strictly below 1 µM. Does it hold?
A) no

Data credit: patent US11111245B2
